Assay: Liver function, ALT, AST, bilirubin in cynomolgus monkeys (Example 45)
Type: in vivo
Details: plasma; day 22; escalating dose regimen
Please use T for AST under 40 IU/L and F for everything else, ties included.

>>> classification("ISIS 416850: MOE gapmer, nucleobases 1275 to 1318 of SEQ ID NO: 1 (Table 8) (antisense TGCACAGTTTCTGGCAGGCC; MOE gapmer, wing and gap sizes not given here)")
"F"
>>> classification("ISIS 416858: MOE gapmer, nucleobases 1275 to 1318 of SEQ ID NO: 1 (Table 8) (antisense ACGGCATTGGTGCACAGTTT; MOE gapmer, wing and gap sizes not given here)")
"T"
>>> classification("ISIS 417002: MOE gapmer, nucleobases 1275 to 1318 of SEQ ID NO: 1 (Table 8) (antisense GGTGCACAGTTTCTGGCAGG; MOE gapmer, wing and gap sizes not given here)")
"F"
